method.summary: yeast display, Sf9 membrane polyspecificity reagent, FACS + sequencing; frameworks hold sequencing errors
property.name: polyreactivity (PSR sort gate)

ordered.residues: QVHLVESGGGLVQAGGSLRLSCAASGRTIHSYAMGWYRQAPGKERELVAAINNGGGTYYADSVKGRFTISRDNAKNTVYLQMNSRKPEDTAVYYCAAATRKRIGSYYYWGQGTQVTVSS
property.name: polyreactivity (PSR sort gate)
test.result: high polyreactivity

ordered.residues: QVQLVDSGGGLVQAGGSLRLSSAASGSTFRYYAMGWYRQAPGKERELVAAISRSGGRTYYADSVKWRFTISRDKAKNTVYLQINSLKPEDNAVYYCNKDSRASPYGYWGQGTQVTVSS
property.name: polyreactivity (PSR sort gate)
test.result: high polyreactivity

ordered.residues: QVQLVESGGGLVQAGGSLRLSCAASGRTFDAYAMGWYRQAPGKERELVATITSGGGTYYADSVKGRFTISRDNAKNTVYLQMNSLKPEDTAVYYCNISYVVSRKYDYWGQGTQVTVSS
property.name: polyreactivity (PSR sort gate)
test.result: low polyreactivity

ordered.residues: QVQLVESGGGLVQAGGSLRLSCAASGFILRYNAMGWYRQAPGKERELVAAISYTGDRTYYADSVKGRFTISRDNAKNTVYLQMNSLKPEDTAVYYCNAGKGQRALVRIGSKLMYYWGQGTQVTVSS
property.name: polyreactivity (PSR sort gate)
test.result: high polyreactivity

ordered.residues: QVQLVESGGGLVQAGGRLRLSCPASGGTFGYNAMGWYRQAPGKERELVAAIRNGGSTYFADSVKGRFTISRDNAKNTVYLQMNSLKPEESAVYYCAAGPRGTGKYYWGQGTQVTVSS
property.name: polyreactivity (PSR sort gate)
test.result: high polyreactivity

ordered.residues: QVQLVESGGGLVQAGGSLRLSRAASGSTFSGYTMGWYRQAPGKERELVAAISTSGGRTSYADSVKGRFTISRDNAKTSVYLQMNSLKPEDTAVYYCAARRWERRVRPGYYPYDYWGQGTQVTVSS
property.name: polyreactivity (PSR sort gate)
test.result: high polyreactivity

ordered.residues: HVQLVESGGGLVQAGGSLRLSCAASGSTFNINAMVWYRQAPGKERELFAAISWSGDITYYADSVKGRFTISRDNAKNTVYLLMISLKPEDTAVYYCNTDDPGNYWYAEYDYWGQGTQVTVSS
property.name: polyreactivity (PSR sort gate)
test.result: low polyreactivity

ordered.residues: QVQLVESGGGLVQAGGSLRLSCAASGGTFYVNAMGWYRQAPGKERELVADISYSGGRTYYADSVKGRFTISRDNAKKTVYLQMNSLKPEDTAVYYCAADPYWVGYGSPFGYWGQGTQVTVSS
property.name: polyreactivity (PSR sort gate)
test.result: high polyreactivity

ordered.residues: QVQLVESGGGLIQAVRSHRLSFAASGSTFRRYAMRWYRQEPGKEREISTSDGSTYYADSVKGRFTISRENAKNTVYLQMNSLKPEDTAVYYCAADGYRKLIEDITDDYCGQGTQVTVSS
property.name: polyreactivity (PSR sort gate)
test.result: low polyreactivity

ordered.residues: QVQLVESGGGLVQAGGSLRLICAASGSIFNYYAMGWYRQAPGKERELVAGITTSGGSTYYADSVKGRFTISRDNAKNTVHLQMNSLKPEDTAVYYCAAYDYISSTYFLDDYWGQGTQVTVSS
property.name: polyreactivity (PSR sort gate)
test.result: low polyreactivity

ordered.residues: QVQLVESGGGLVQAGGSLRLSCAASGLTFDYYAMGWYRQAPGKERELVAAITRRGGGTYYADSVKGRFTISRDNAKNTVYLQMNSLTPEDTAVYYCNADRRSWSALHRYDYWGQGTQVTVSS
property.name: polyreactivity (PSR sort gate)
test.result: high polyreactivity

ordered.residues: QVQLVESGGGLVQAGGSLRLSCAASGSTFVPYTMGWYRQAPGKERELVAVISSSGGNTYYADSVKGRFTISRDNAKNTVYLQMNSLKPEDTAVYYCNKDYWYPNYRRYEYWGQGTQVTVSS
property.name: polyreactivity (PSR sort gate)
test.result: low polyreactivity

ordered.residues: QVQLVESGGGLVQAGGSLRLSCAASGRIFGTYTMGWYRQAPGKERELVAAISRNGGSTYYADSVKGRITISRDNAKNTVYLQMNSLKPEDTAVYYCNAERRDDRGFDYWGQGTQVTVSS
property.name: polyreactivity (PSR sort gate)
test.result: low polyreactivity

ordered.residues: QVQLVESGGGLVQAGGSLRLSCAASGRIFVYYPMGWYRQAPGIERELVAAINAGGSTNYADSVKGRFTISRDNAKNTVYLQMNSLKPEDTAVYYCAAVRRSRYSYRGYYWGQGTQVTVSS
property.name: polyreactivity (PSR sort gate)
test.result: high polyreactivity

ordered.residues: QVQLVESGGGLVQAGGSLRLSCAASGRIFKSYAMGWYRQAPGKERELVASIRTGGTTNYADSVNGRFTISRDNAKNTVYLQMNSLKPEDTAVYDCNRGYYSYYGRYYYWGQGTQVTVSS
property.name: polyreactivity (PSR sort gate)
test.result: high polyreactivity

ordered.residues: KVQLQESGGGLVQAGGSLRLSCAASCTISQEDWMGWYRQAPGKEREFVAAIGLGSNTNYADSLKGRFPISRDNAKNTVYLQMNSLKPEDTAVYYCAVSVWQYSDHVYRGQGTQVTVSS
property.name: polyreactivity (PSR sort gate)
test.result: low polyreactivity

ordered.residues: QVQLVDSGGGLVQAGGRLRLSCAASGNNFVEYAMGWYRPAPGKERELVAAITNSGGRTHYADSVKRRFTISRDNAKNTVYLQMNSLKPEDTGVYYCAAPTKYRSRRYYWGQGTLVTVSS
property.name: polyreactivity (PSR sort gate)
test.result: high polyreactivity

ordered.residues: QVQLVESGGGLVQAGGSLRLSCAASGRIFRYKAMGWYRQAPGKERELVAAISGSGGSTYYADSVKGRFTISRDNAKNTVYLQMNSLKPEDTAVYYCNALYWIFNHGGYDYWGQGTQVTVSS
property.name: polyreactivity (PSR sort gate)
test.result: low polyreactivity

ordered.residues: QVQLVESGGGSVQAGGSLRLSCAASGFTFDKNTMGWYRQAPGKERELVAAISSSGSSTYYADSVKGRFTISRDNAKNTVYLQMNSLKPEDTAVYYCAADYWGWDDYSEYYYWGQGTQVTVSS
property.name: polyreactivity (PSR sort gate)
test.result: high polyreactivity

ordered.residues: QVQLVESGGGLVQAGGSLRLSCAASGSTLFYYAMGCYRQAPGKERELVAAITQNGGGTYYADSVKGRFTISRDNAKNTVYLQMNSLKPEDTAVYYCAVTQEYIADHWYGYWGQGTQVTVSS
property.name: polyreactivity (PSR sort gate)
test.result: low polyreactivity

ordered.residues: QVQLVESGGGLVQAGGSLRLSCAASGSIFVEYAMGWYRQAPGKERELVAGISSGGITSYADSVKGRFTISRDNAKNTVYLQMNSLKPEDTAVYYCATDPYKWFFSSYYLLQEVEYWGQGTQVTVSS
property.name: polyreactivity (PSR sort gate)
test.result: low polyreactivity
